The measured values listed here are drawn from patent US20250313547A1.

Consider the following compounds and their measured DC50 readings.
assay system: Estrogen receptor-alpha (ERα) (Homo sapiens (Human), UniProt P03372)
Sequence (P03372 whole entry): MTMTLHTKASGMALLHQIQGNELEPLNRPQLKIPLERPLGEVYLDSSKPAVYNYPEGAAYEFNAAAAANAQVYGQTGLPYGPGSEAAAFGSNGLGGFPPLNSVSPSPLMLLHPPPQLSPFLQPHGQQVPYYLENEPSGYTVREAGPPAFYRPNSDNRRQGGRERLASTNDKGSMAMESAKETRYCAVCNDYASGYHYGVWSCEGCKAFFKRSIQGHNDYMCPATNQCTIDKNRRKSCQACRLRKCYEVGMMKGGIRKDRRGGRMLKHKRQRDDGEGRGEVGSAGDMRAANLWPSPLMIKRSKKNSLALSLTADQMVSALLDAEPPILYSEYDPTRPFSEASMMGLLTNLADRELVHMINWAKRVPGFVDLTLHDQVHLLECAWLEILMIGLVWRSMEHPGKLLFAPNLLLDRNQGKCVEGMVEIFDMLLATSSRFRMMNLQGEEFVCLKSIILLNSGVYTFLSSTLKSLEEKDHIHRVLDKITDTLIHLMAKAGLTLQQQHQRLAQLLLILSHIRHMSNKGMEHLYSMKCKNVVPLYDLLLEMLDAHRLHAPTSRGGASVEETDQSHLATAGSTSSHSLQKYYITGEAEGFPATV
test method notes: ERα degradation assay in T47D cells
Format: cell-based
condition notes: 5 day incubation, read-out: ER degradation DC50

Recorded DC50, per entry:
compound="O=C1CCC(N2CC(Oc3cccc(C4CCN(CCCOc5ccc([C@H]6c7ccc(O)cc7CC[C@H]6c6ccccc6)cc5)CC4)c3)=CC2=O)C(=O)N1 (mixture of isomers) [PROTAC-105]" assay_system="Estrogen receptor-alpha (ERα) (Homo sapiens (Human), UniProt P03372)" reported_value="≥ 100 nM"
compound="O=C1CCC(N2CC(Oc3cccc(C4CCN(CCCCOc5ccc([C@H]6c7ccc(O)cc7CC[C@H]6c6ccccc6)cc5)CC4)c3)=CC2=O)C(=O)N1 (mixture of isomers) [PROTAC-109]" assay_system="Estrogen receptor-alpha (ERα) (Homo sapiens (Human), UniProt P03372)" reported_value="≥ 100 nM"
compound="O=C1CCC(N2CC(Oc3cccc(C4CCN(CCCOc5ccc([C@@H]6c7ccc(O)cc7CC[C@@H]6c6ccccc6)cc5)CC4)c3)=CC2=O)C(=O)N1 (some centres unmarked) [PROTAC-106]" assay_system="Estrogen receptor-alpha (ERα) (Homo sapiens (Human), UniProt P03372)" reported_value="1 to 10 nM"

Task: So what does the record say about DC50 for CCN(C(=O)c1ccc(N2CCN(CCCCCOc3ccc([C@@H]4c5ccc(O)cc5CC[C@@H]4c4ccccc4)cc3)CC2)cc1OC)C1CCC(=O)NC1=O (mixture of isomers) [PROTAC-92] ?
Result: ≥ 100 nM

Task: So what does the record say about DC50 for O=C1CCC(N2CC(Oc3cccc(C4CCN(CCCCOc5ccc([C@@H]6c7ccc(O)cc7CC[C@@H]6c6ccccc6)cc5)CC4)c3)=CC2=O)C(=O)N1 (mixture of isomers) [PROTAC-104] ?
Result: ≥ 100 nM

###

Consider the following compounds and their measured Kd readings.
assay system: immobilized CRBN protein (cereblon) (Homo sapiens (Human))

Task: Can you look up Kd on immobilized CRBN protein (cereblon) (Homo sapiens (Human)) for Cc1ccncc1-n1cc(C#N)c(=O)[nH]c1=O [compound 36] ?
Result: > 100 µM

Task: Can you look up Kd on immobilized CRBN protein (cereblon) (Homo sapiens (Human)) for Cc1cc(C(N)=O)[nH]c(=O)c1N1C(=O)c2ccccc2C1=O [compound 41] ?
Result: > 100 µM

Task: Can you look up Kd on immobilized CRBN protein (cereblon) (Homo sapiens (Human)) for O=c1ccn(-c2cccnc2)c(=O)[nH]1 [compound 40] ?
Result: 10 to 100 µM

Task: Can you look up Kd on immobilized CRBN protein (cereblon) (Homo sapiens (Human)) for O=C1CCC(N2C(=O)c3ccc(F)c(F)c3C2=O)C(=O)N1 (stereo not drawn) [compound 9] ?
Result: 1 to 10 µM

###

assay system: immobilized CRBN protein (cereblon) (Homo sapiens (Human), UniProt Q96SW2)
Sequence (Q96SW2 whole entry): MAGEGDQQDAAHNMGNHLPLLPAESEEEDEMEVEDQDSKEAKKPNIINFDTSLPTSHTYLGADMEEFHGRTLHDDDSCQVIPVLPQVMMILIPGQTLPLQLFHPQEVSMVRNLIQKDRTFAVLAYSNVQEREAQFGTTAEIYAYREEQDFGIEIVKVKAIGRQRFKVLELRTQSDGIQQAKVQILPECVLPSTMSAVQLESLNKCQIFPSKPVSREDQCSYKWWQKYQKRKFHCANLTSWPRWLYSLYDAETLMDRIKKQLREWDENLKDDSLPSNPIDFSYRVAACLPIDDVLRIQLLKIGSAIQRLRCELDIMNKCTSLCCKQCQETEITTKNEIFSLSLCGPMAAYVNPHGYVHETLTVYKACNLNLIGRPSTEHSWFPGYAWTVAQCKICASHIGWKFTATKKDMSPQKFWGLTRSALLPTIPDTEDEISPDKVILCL
pKd: −log10 of the molar value.
endpoint label: pKd

Recorded pKd, per entry:
molecule="O=C1CN(C2Cc3ccccc3C2=O)C(=O)N1 (centres unmarked)" reported_value="< 4.00"
molecule="CN1CC(N2C(=O)c3ccccc3C2=O)C(=O)NC1=O (centres unmarked)" reported_value="< 4.00"
molecule=N#Cc1cn(-c2cnc3ccccc3c2)c(=O)[nH]c1=O reported_value="4.00 to 5.00"
molecule="CCOc1cnn(C2CCC(=O)NC2=O)c(=O)c1 (centres unmarked)" reported_value="5.00 to 6.00"
molecule=O=C1c2ccccc2C(=O)N1c1c[nH]c(=O)[nH]c1=O reported_value="< 4.00"

Task: So what does the record say about pKd for `O=C1c2ccccc2C(=O)N1CCn1ccc(=O)[nH]c1=O` ?
Result: < 4.00

Task: So what does the record say about pKd for `O=c1ccn(-c2cncc3ccccc23)c(=O)[nH]1` ?
Result: 4.00 to 5.00

###

assay system: immobilized CRBN protein (cereblon) (Homo sapiens (Human))
endpoint label: Kd

compound=NC(=O)c1ccc(N2C(=O)c3ccccc3C2=O)c(=O)[nH]1 endpoint_label=Kd reported_value="> 100 µM"
compound="CCOc1ccn(C2CCC(=O)NC2=O)c(=O)c1 (stereo not shown)" endpoint_label=Kd reported_value="> 100 µM"
compound=Cc1cc(C#N)[nH]c(=O)c1N1C(=O)c2ccccc2C1=O endpoint_label=Kd reported_value="10 to 100 µM"

Task: Can you look up Kd on immobilized CRBN protein (cereblon) (Homo sapiens (Human)) for O=C1CCC(N2C(=O)c3cc(F)c(NCCCCCCO)cc3C2=O)C(=O)N1 (stereo not shown) ?
Result: 10 to 100 µM

###

assay system: UniProt Q96SW2
test method notes: Surface plasmon resonance (SPR) KD determination on immobilized cereblon
condition notes: average of at least N=2, 1:1 fit, read-out: KD Binding to immobilized CRBN protein in SPR assay
Consider the following compounds and their measured Kd readings.

compound="O=C1CCC(N2Cc3cc(NCCCCCCO)c(F)cc3C2=O)C(=O)N1 (stereo not drawn)" endpoint_label=Kd reported_value="10 to 100 µM"
compound="O=C1NCC(N2C(=O)c3ccccc3C2=O)C(=O)N1 (stereo not drawn)" endpoint_label=Kd reported_value="> 100 µM"

Next item in the queue.
Task: Can you look up Kd on UniProt Q96SW2 for `N#Cc1cn(-c2cccnc2)c(=O)[nH]c1=O` ?
Result: > 100 µM
